assay-remarks: yeast display, Sf9 membrane polyspecificity reagent, FACS + sequencing; frameworks hold sequencing errors
measured-metric: polyreactivity (PSR sort gate)

QVQLVESGGGLVQPGGSLRLSCAASGRISSYYAMGWYRQAPGKERELVAAISNAGSTKYADSVKGRFTISRDNAKNTVYLQMNRLKPEDTAVYYCNARSYRWSWVLRYDYWGKGTQVTVSS :: high polyreactivity
QVQLGESGGGLVQAGGSVRLSCAASGGTFGWYAMGWYRPAPGKERELVAAITSSGGTTFDADSVKGRFTISRDNAKNTVYLQMNSLKPEDTAVYYCAKRGQRPTRYKLGKYDYWGQGTQVTVSS :: high polyreactivity
QVQLVESGGGLVQAGGSLRLSCAASGIILGPYAMGWYRQAPGKERELVAAISWRGGSTYYADSVKGRFTISRDNAKNTVYLQMNSLKPEDTAVYYCATASRTSRTGWAGYYWGQGTQVTVSS :: high polyreactivity

###

assay-remarks: yeast display, Sf9 membrane polyspecificity reagent, FACS + sequencing; frameworks hold sequencing errors
measured-metric: polyreactivity (PSR sort gate)

Record excerpt, results attached:
QVQLVESGGGLVQAGGSLRLSCAASGITFNYYAMGWYRQAPGKERELVATINRSGGTTYYADSVKGRITISRDNAKNTVYLQMNSLKPEDTAVYYCNARYTSRGRYHSGYDYWGQGTQVTVSS :: high polyreactivity
QVQLVESGGGIVQAGGSLRLSCAASGRIFPHNAMGWDRQAPGKERELVAAITKSGDDTYYADSVKGRFTISRDNAKNTVYLQMNSLKPEDTAVYYCAAYLSWYDYWGQGTQVTVSS :: low polyreactivity
QVQLVESGGGLVQAGGSLRLSCAASGSTFGYNAMGWYRQAPGKERELVAAISWRGGNTYYADSVKGRFTISRDNAKNTVYLQMNSLKPEDTAVYYCNKVWPRYYVHGGSRVPEYDYWGQGTQVTVSS :: high polyreactivity
QVQLVESGGGLVQAGGSLRLSCAASGNIFSTYAMGWYRQAPGKERELVAAISKSGGRTYYADSVKGRFTISRDNAKNTVYLQMNSLKPEDTAVYYCNKRYQHGISFGYGYWGQGTQVTVSS :: high polyreactivity

Task: Hello, please tell me recorded polyreactivity (PSR sort gate) for this one: QFQIVESGGGLVQAGGSLRLSCAASGSTFRSYAMGWYRQAPGKERELFARISYRTGSTYYADSVKRRFTISRDNAKNTVYLQMNSLKPEDTVVYYCAAGYIIQRSYFLYDSWGHGTQVTVSS
Result: high polyreactivity

Task: Hello, please tell me recorded polyreactivity (PSR sort gate) for this one: QVQLVESGGGLVQAGGSLRLSCAASGRTFSTYAMGWYRQSPGKERELVAAITWRGASTYYADSVKGRFTISRDYAKNTVYLQMNSLKPEDTAVYYCATDAPDRTDSDSGFDAGYDYWGQGTQVTLSS
Result: low polyreactivity

Task: Hello, please tell me recorded polyreactivity (PSR sort gate) for this one: QVQLVESGGGLVQAGGRLRLSCAASGGTFYLIAMGWYIQAPGKERELVAAISGSGTSTYYADSVKGRFTISRDNAKNTVYLQMNSLKPEDTAVYYCAADGTYFYIYLGDRFDYWGQGTQVTVSS
Result: low polyreactivity

Task: Hello, please tell me recorded polyreactivity (PSR sort gate) for this one: QVQLVESGGGLVQAGGSLRLSCAASGGIFISYAMGWYRQAPGKERELVAAITSSGGSTYYADSVKGRFTISRDNAKNTVYLQMNSLKPEVTAVYYCNTDRVPVKVSPLYESWGQGTQVTVSS
Result: low polyreactivity

###

assay-remarks: yeast display, Sf9 membrane polyspecificity reagent, FACS + sequencing; frameworks hold sequencing errors
measured-metric: polyreactivity (PSR sort gate)

QVQLVESGGGLVQAGGSLRLSCAASGRTLYYYAMGWYRQAPGKEMDLVASISRGGNTNYADSVKGRFTISRDNAKNSVYLQMYSLKPEDTAVYYCAAQYSPYSFSQYVYWGQGTQVTVSS :: high polyreactivity
QVKLVESGGGLVQAGGSLRLSFAASAGTFNSYAKGWYRQEPGKERELVATISYSGGSTYYADSVKGRFTISRDNAKYTVYLQMNSLKPEDTAVYYCAKVRYYPYSPGGLDYWGQGTQVTVSS :: low polyreactivity
QFQLVESGGGLVQAGGSLRLSCAASGIMFGYYAMGWYRQAPGKERELVAALTRSGGSTYYADSVKGRFTISRDNAKNTVYLQLNSLKPEDTALYYCNGDDDGRVSSTIVEYWGQGTQVTVSS :: low polyreactivity
QVQLEESGGGLVQAGGSRRLSCAASGITFPGYAMGWYRQAPGKERELVAGITYRGGRTYYADSVKGRFTISRDNAKTTVYLQMTSLNTEATAVYYCNADYWSTGGSYSFDYWGQGTQVTVSS :: low polyreactivity

Task: Hello, please tell me recorded polyreactivity (PSR sort gate) for this one: QVQLVESGGGLVQAGGSLRLSCAASGRIFQWYTMGWYRQAPGKERELVATITDGGSTYYADSVKGRFTISRDNAKNTVYLQMNSLKPEDTAVYYCAARKIGSRRLLYPYYIFGYWGQGTQVTVSS
Result: high polyreactivity

Task: Hello, please tell me recorded polyreactivity (PSR sort gate) for this one: QVQLVESGGGLVQAGGSLRLSCAASGRTFPCYAMGWYRQAPGKEREFVAAITASGDSTYYADSVKGRFTISRDNAKNTVYLQMNSLKPEDTAVYYCAADLPVWYVTRYDYWGQGTQVTVSS
Result: low polyreactivity

###

assay-remarks: yeast display, Sf9 membrane polyspecificity reagent, FACS + sequencing; frameworks hold sequencing errors
measured-metric: polyreactivity (PSR sort gate)

Record excerpt, results attached:
QVQLVESGGGLVQAGGSLRLSCAASGIIFRANAMGWYRQAPGKERELVAAISGRGSSTTYADSVKGRFTISRDNAKNTVYLQMNSLKPEDTAVYYCAAAGWSARGYNYWGQGTQVTVSS :: high polyreactivity
QVQLVESGGGLVQAGGSLRLSCAASGFIFTYYALGWYRQAPGKERELVAAITIGGTTNYADSVKGRFTISRDNAKNTVYLQMNSLKPEDTAVYYCAAYFTIEDWYYNEAVRYYYWGQGTKVTVSS :: high polyreactivity
QVQLVESGGGLVQAGGSLRLSCAASGSIIKRNAKGWYRQAPGKERELVASISSGGSTKYADSVKGRFTISRDNAKNTVYLQMNSLKPEDTAVYYCAKRSSQTRRAYDYWGQGTQVTVSS :: low polyreactivity
QVQLVESGGGLVQAGGSLRLSCAASGSIFGINVMGWYRQAPGKERELVAAITSGTSTYYADSVKGLFTISRDNANNTVYLQMNSLKPEDTAVYYCAALWSSRFVVHPQWYDYWGQGTQVTVSS :: low polyreactivity

Kindly consider the entry below.
Task: Hello, please tell me recorded polyreactivity (PSR sort gate) for this one: QVQLVESGGGLVQAGGSLRLSCAASGRIIKYYTMGWYRQAPGKERELVASITGTGGSTYYADSVKGRFTISRDNAKNTVYLQMNSLKPEDTAVYYCAARLSVLGGYRGRNAWRFDHWGQGTQVTVSS
Result: high polyreactivity

###

assay-remarks: yeast display, Sf9 membrane polyspecificity reagent, FACS + sequencing; frameworks hold sequencing errors
measured-metric: polyreactivity (PSR sort gate)

QVQLVESGGGLVQAGGSLRLSCAASGFIFTNYAMGWYRQAPGKERELVAAITRRGGGTYYADSVKGRFTISRDNAKNTVYLQMNSLKPEDTAVYYCAKYSRLVTANDYDYWGQGTQVTVSS :: high polyreactivity
QVHLVESGGGLVHAGGSLRLSCAASRSTFRNYAMGWYRQAHGKEREFVATINWIGGTTYYADSVKGRFTLSRDNAKNTVDLQMNSLKPVDTGVYYCAAQFDYYPWGGYWGQGTQVTVSS :: high polyreactivity
QVQLVESGGGLVQAGGSLRLSCAASGSIFATYAMGWYRQAPGKERELVAAISSSGSRTYYADSVKGRFTNSRDNAKNTVYLQMNSLKPEDTAVYYCAAGSGRFRPGYGYWGQGTQVTVSS :: high polyreactivity

###

assay-remarks: yeast display, Sf9 membrane polyspecificity reagent, FACS + sequencing; frameworks hold sequencing errors
measured-metric: polyreactivity (PSR sort gate)

QVQLVESGGGLVQAGGSLRLSCAASGRTFFRNAMGWYRQAPGKERELVAAISKRGGSTYYADSVKGRFTISRDNAKNTVYLQMNSLKPEDTAVYYCNADPRTVGLDYWGQGTQVTVSS :: high polyreactivity
QVQLVESGGGIVQAGGSLRLSCAASGSIFNIYAMGWYRQAPGKERELVAAIRWTGGSTYYADSVKGRFTISRDNAKNTVYLQMNILIPEDTAVYYCAADPWYPRGYYWGQGTQVTVSS :: high polyreactivity
QVQLVESGGGLVQAGGSLRLSCAASGSTIPDYTMGWYRQAPGKEREFVAAISRIGGTYYADSVKGRFSISRDNAKNTVYLQMNSLKPEDTAVYSCNADPQGLSGRYHGFDYWGQGTQVTVSS :: low polyreactivity
QVQLVESGGGLVQAGGSLRLSCAASGITFYYYAMGWYRQAPGKERELVAAISVSGGSTYYADSVKGRFTISRDNAKNTVYLQMNSLKPEDTAVYYCAAADLLSYTYPEYDYWGQGTQVTVSS :: low polyreactivity
